# Test system: LG0567-F671-PDC KRAS tumor spheroid viability;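 also: drug exposure lasted seven days after spheroids formed for three days; 100% = DMSO vehicle control viability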
# method-notes: Anticancer human tumor LG0567-F671-PDC patient-derived lung adenocarcinoma cell line growth inhibition [KRAS2]
# reported-conditions: second compound 0.1 µM; first compound 0.316 µM; stronger effect = lower value; spheroids with HUVEC and MSC
recorded-metric: viability, T/C

compound | viability, T/C
CC(C)NCC(C(=O)N1CCN(c2ncnc3c2C(C)CC3O)CC1)c1ccc(Cl)cc1 (stereo not given) + COc1cc2nc(C)nc(NC(C)c3cc(N)cc(C(F)(F)F)c3)c2cc1OC1CCOC1 | 56.2%

Entry CC(=O)OC12COC1CC(O)C1(C)C(=O)C(O)C3=C(C)C(OC(=O)C(O)C(NC(=O)OC(C)(C)C)c4ccccc4)CC(O)(C(OC(=O)c4ccccc4)C21)C3(C)C (stereo not given) + C=CC(=O)N1CCN(c2nc(OCC3CCCN3C)nc3c2CCN(c2cccc4cccc(C)c24)C3)CC1CC#N : reported viability, T/C = ?
16.5%

I have this compound here, COC(=O)c1ccc2c(C(=Nc3ccc(N(C)C(=O)CN4CCN(C)CC4)cc3)c3ccccc3)c(O)[nH]c2c1 + C=CC(=O)N1CCN(c2nc(OCC3CCCN3C)nc3c2CCN(c2cccc4cccc(C)c24)C3)CC1CC#N , and I need its recorded viability, T/C.
23.4%

Please give the measured viability, T/C for this compound: CC(C)NCC(C(=O)N1CCN(c2ncnc3c2C(C)CC3O)CC1)c1ccc(Cl)cc1 (stereo not given) + CC1OCC2(CCN(c3cnc(Sc4ccnc(N)c4Cl)c(N)n3)CC2)C1N
29.8%

What does the data say about its viability, T/C? Entry: O=C(c1cc(Cc2n[nH]c(=O)c3ccccc23)ccc1F)N1CCN(C(=O)C2CC2)CC1 + CC1OCC2(CCN(c3cnc(Sc4ccnc(N)c4Cl)c(N)n3)CC2)C1N
60.3%

Name the reported viability, T/C value associated with the compound Cn1nccc1Nc1nccc(-c2cc3c(s2)C(C)(C)N(CCN2CCOCC2)C3=O)n1 + CNCc1ccccc1-c1csc(C(C)Nc2nc(C)nc3cc(OC)c(OC)cc23)c1
59.6%

Entry CCN1CCN(Cc2ccc(Nc3ncc(F)c(-c4cc(F)c5nc(C)n(C(C)C)c5c4)n3)nc2)CC1 + C=CC(=O)N1CCN(c2nc(OCC3CCCN3C)nc3c2CCN(c2cccc4cccc(C)c24)C3)CC1CC#N has what viability, T/C?
22.1%

Given the compound COc1cc2nccc(Oc3ccc(NC(=O)C4(C(=O)Nc5ccc(F)cc5)CC4)cc3)c2cc1OC + CC1OCC2(CCN(c3cnc(Sc4ccnc(N)c4Cl)c(N)n3)CC2)C1N , what is its reported viability, T/C?
33.3%

Entry CC(=O)OC12COC1CC(O)C1(C)C(=O)C(O)C3=C(C)C(OC(=O)C(O)C(NC(=O)OC(C)(C)C)c4ccccc4)CC(O)(C(OC(=O)c4ccccc4)C21)C3(C)C (stereo not given) + C=CC(=O)N1CCN(c2nc(=O)n(-c3c(C)ccnc3C(C)C)c3nc(-c4c(O)cccc4F)c(F)cc23)C(C)C1 : reported viability, T/C = ?
14.9%

Please look up its viability, T/C: COc1cc2nccc(Oc3ccc(NC(=O)C4(C(=O)Nc5ccc(F)cc5)CC4)cc3)c2cc1OC + C=CC(=O)N1CCN(c2nc(OCC3CCCN3C)nc3c2CCN(c2cccc4cccc(C)c24)C3)CC1CC#N
26.6%

The origin of these recorded values is PubChem BioAssay AID1963856.
